Target under test: Sox2 DBD, isolated, unlabelled (UniProt P48431 37-120)
Sequence (P48431 37-120): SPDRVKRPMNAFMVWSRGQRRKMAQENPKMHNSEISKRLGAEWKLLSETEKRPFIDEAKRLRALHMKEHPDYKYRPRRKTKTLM
Assay protocol: smFRET titration; 200 mM salt (table; text gives 165 mM KCl); smFRET: 165 mM KCl or 200 mM salt (Supplementary Table 4), buffer details not in material; NMR: 20 mM NaH2PO4, 50 mM NaCl, 5 mM DTT, pH 5.5, 15 C
Run parameters: protein: recombinant; tags: His6-SUMO removed by ULP1; label: Cy3B and CF660R, one on each 5' end; blunt
Metric name: Kd
The answer should read as a number with its unit following.

Sample 15 bp specific DNA, labelled (dsDNA, 5' C6-amino linker on both strands) DNA 1: ACTCTTTGTTTGGAT DNA 2: ATCCAAACAAAGAGT ; Kd observed: 0.3 nM
